Below are molecules with their AC50 as measured on B2 bradykinin receptor (Homo sapiens).
Sequence (P30411 whole entry): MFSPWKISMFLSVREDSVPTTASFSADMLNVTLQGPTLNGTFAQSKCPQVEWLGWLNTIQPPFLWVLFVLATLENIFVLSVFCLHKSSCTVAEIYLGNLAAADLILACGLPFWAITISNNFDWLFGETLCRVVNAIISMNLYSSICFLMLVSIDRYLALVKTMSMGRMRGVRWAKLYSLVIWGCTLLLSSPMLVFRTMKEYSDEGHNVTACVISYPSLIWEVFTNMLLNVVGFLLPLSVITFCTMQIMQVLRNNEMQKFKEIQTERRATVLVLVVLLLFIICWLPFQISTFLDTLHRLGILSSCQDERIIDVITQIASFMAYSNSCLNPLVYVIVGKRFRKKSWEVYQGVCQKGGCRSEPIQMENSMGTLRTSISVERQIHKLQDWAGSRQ

O=C(O)COC(=O)Cc1ccccc1Nc1c(Cl)cccc1Cl; > 30 µM
CCc1ccc(C(=O)C(C)CN2CCCCC2)cc1 (stereo not given); > 30 µM
CN(C)[C@@H]1C(O)=C(C(=O)NCN2CCCC2)C(=O)[C@@]2(O)C(O)=C3C(=O)c4c(O)cccc4[C@@](C)(O)[C@H]3C[C@@H]12; > 10 µM
C[C@H](CS)C(=O)N1CCC[C@H]1C(=O)O; > 30 µM

(Q) Please state recorded AC50 (tested on B2 bradykinin receptor (Homo sapiens)) of CC[N+](CC)(CCNC(=O)C(=O)NCC[N+](CC)(CC)Cc1ccccc1Cl)Cc1ccccc1Cl; also: assay procedure not described here
(A) > 30 µM

Data origin, for the record: ChEMBL document CHEMBL5291721
